- Test system: Escherichia coli TOP10
- procedure-details: shrunken log2 fold change of peptide-encoding DNA abundance (4.5 h post-induction vs induction); higher = less antimicrobial activity (less host growth inhibition)
- measurement-conditions: time post-induction: 4.5 h; library: site-saturation at positions 5, 18, 19, 20
Hi, to clarify the labels: criterion met covers shrunken log2 fold change from 0.006 upward, criterion not met covers anything below 0.006.

As a guide, the following entries are already answered.
>>> class_assignment("RRIRCRPPRLPRPRPRPGLDPRP")
"criterion met"
>>> class_assignment("RRIRCRPPRLPRPRPRPPFLPRP")
"criterion not met"
>>> class_assignment("RRIRDRPPRLPRPRPRPHNYPRP")
"criterion not met"

Req: Answer whether shrunken log2 fold change of RRIRTRPPRLPRPRPRPFTIPRP is greater than or equal to 0.006.
Resp: criterion not met

Req: Answer whether shrunken log2 fold change of RRIRYRPPRLPRPRPRPMKKPRP is greater than or equal to 0.006.
Resp: criterion not met

###

For each entry below, report its shrunken log2 fold change value.
- Tested on: Escherichia coli TOP10
- procedure-details: shrunken log2 fold change of peptide-encoding DNA abundance (4.5 h post-induction vs induction); higher = less antimicrobial activity (less host growth inhibition)
- measurement-conditions: time post-induction: 4.5 h; library: site-saturation at positions 5, 18, 19, 20
Give bare numbers.

Check out these entries, answers already filled in.
>>> recorded_value("RRIRGRPPRLPRPRPRPHQPPRP")
0.18
>>> recorded_value("RRIRWRPPRLPRPRPRPTYQPRP")
-0.325
>>> recorded_value("RRIRCRPPRLPRPRPRPEQLPRP")
0.407
>>> recorded_value("RRIRSRPPRLPRPRPRPSFAPRP")
0.0497
>>> recorded_value("RRIRSRPPRLPRPRPRPGHSPRP")
0.0297

Provide each entry's shrunken log2 fold change from the list below.
1. RRIRFRPPRLPRPRPRPTWAPRP
2. RRIRCRPPRLPRPRPRPTNMPRP
3. RRIRRRPPRLPRPRPRPACLPRP
4. RRIRCRPPRLPRPRPRPTGIPRP
5. RRIRQRPPRLPRPRPRPENEPRP

Resp:
0.0327
-0.47
0.623
0.287
0.0608

###

- System: Escherichia coli TOP10
- procedure-details: shrunken log2 fold change of peptide-encoding DNA abundance (4.5 h post-induction vs induction); higher = less antimicrobial activity (less host growth inhibition)
- measurement-conditions: time post-induction: 4.5 h; library: site-saturation at positions 5, 18, 19, 20
Hi, to clarify the labels: MET covers shrunken log2 fold change from -0.04 upward, NOT MET covers anything below -0.04.

>>> class_assignment("RRIRMRPPRLPRPRPRPVIMPRP")
"NOT MET"
>>> class_assignment("RRIRVRPPRLPRPRPRPVVHPRP")
"MET"
>>> class_assignment("RRIRNRPPRLPRPRPRPCCDPRP")
"MET"
>>> class_assignment("RRIRRRPPRLPRPRPRPAMVPRP")
"MET"
>>> class_assignment("RRIRLRPPRLPRPRPRPLCEPRP")
"MET"

From here, focus on the item given below.
Req: Answer whether shrunken log2 fold change of RRIRPRPPRLPRPRPRPRSIPRP is greater than or equal to -0.04.
Resp: NOT MET

###

- System: Escherichia coli TOP10
- procedure-details: shrunken log2 fold change of peptide-encoding DNA abundance (4.5 h post-induction vs induction); higher = less antimicrobial activity (less host growth inhibition)
- measurement-conditions: time post-induction: 4.5 h; library: site-saturation at positions 5, 18, 19, 20
For each entry below, report its shrunken log2 fold change value.

>>> recorded_value("RRIRRRPPRLPRPRPRPETAPRP")
0.658
>>> recorded_value("RRIRMRPPRLPRPRPRPGEAPRP")
2.18

Provide each entry's shrunken log2 fold change from the list below.
1. RRIRRRPPRLPRPRPRPCLPPRP
2. RRIRLRPPRLPRPRPRPISNPRP
3. RRIRERPPRLPRPRPRPRTTPRP
4. RRIRARPPRLPRPRPRPYLVPRP
5. RRIRHRPPRLPRPRPRPGKIPRP
6. RRIRDRPPRLPRPRPRPQQNPRP

Resp:
1: -0.132; 2: -0.17; 3: 0.00749; 4: 0.0333; 5: -0.769; 6: -0.452

###

- Test system: Escherichia coli TOP10
- procedure-details: shrunken log2 fold change of peptide-encoding DNA abundance (4.5 h post-induction vs induction); higher = less antimicrobial activity (less host growth inhibition)
- measurement-conditions: time post-induction: 4.5 h; library: site-saturation at positions 5, 18, 19, 20
Hi, to clarify the labels: Criterion met covers shrunken log2 fold change from -0.0006 upward, Criterion not met covers anything below -0.0006.

As a guide, the following entries are already answered.
>>> class_assignment("RRIRGRPPRLPRPRPRPQQPPRP")
"Criterion met"
>>> class_assignment("RRIRCRPPRLPRPRPRPFYDPRP")
"Criterion not met"
>>> class_assignment("RRIRNRPPRLPRPRPRPTNFPRP")
"Criterion met"

Req: Answer whether shrunken log2 fold change of RRIRWRPPRLPRPRPRPDLFPRP is greater than or equal to -0.0006.
Resp: Criterion met

Req: Answer whether shrunken log2 fold change of RRIRHRPPRLPRPRPRPKNDPRP is greater than or equal to -0.0006.
Resp: Criterion not met

Req: Answer whether shrunken log2 fold change of RRIRDRPPRLPRPRPRPGGMPRP is greater than or equal to -0.0006.
Resp: Criterion met

Req: Answer whether shrunken log2 fold change of RRIRTRPPRLPRPRPRPVADPRP is greater than or equal to -0.0006.
Resp: Criterion met

Req: Answer whether shrunken log2 fold change of RRIRTRPPRLPRPRPRPDDVPRP is greater than or equal to -0.0006.
Resp: Criterion not met

Req: Answer whether shrunken log2 fold change of RRIRSRPPRLPRPRPRPIWMPRP is greater than or equal to -0.0006.
Resp: Criterion not met

###

- Test system: Escherichia coli TOP10
- procedure-details: shrunken log2 fold change of peptide-encoding DNA abundance (4.5 h post-induction vs induction); higher = less antimicrobial activity (less host growth inhibition)
- measurement-conditions: time post-induction: 4.5 h; library: site-saturation at positions 5, 18, 19, 20
metric: shrunken log2 fold change
One number for each entry.

Check out these entries, answers already filled in.
>>> recorded_value("RRIRYRPPRLPRPRPRPFCVPRP")
-0.264
>>> recorded_value("RRIRCRPPRLPRPRPRPPNNPRP")
-0.138
>>> recorded_value("RRIRHRPPRLPRPRPRPTMAPRP")
-0.0607
>>> recorded_value("RRIRCRPPRLPRPRPRPFRYPRP")
-0.29
>>> recorded_value("RRIRERPPRLPRPRPRPQSNPRP")
-0.172

Provide each entry's shrunken log2 fold change from the list below.
1. RRIRVRPPRLPRPRPRPWIEPRP
2. RRIRARPPRLPRPRPRPREPPRP

Resp:
-0.104
0.199

Provide each entry's shrunken log2 fold change from the list below.
1. RRIRSRPPRLPRPRPRPYGEPRP
2. RRIRHRPPRLPRPRPRPIGPPRP
3. RRIRDRPPRLPRPRPRPSSCPRP
4. RRIRPRPPRLPRPRPRPKDKPRP

Resp:
1. -0.256
2. -0.00697
3. 0.00339
4. -0.125

###

For each entry below, report its shrunken log2 fold change value.
- System: Escherichia coli TOP10
- procedure-details: shrunken log2 fold change of peptide-encoding DNA abundance (4.5 h post-induction vs induction); higher = less antimicrobial activity (less host growth inhibition)
- measurement-conditions: time post-induction: 4.5 h; library: site-saturation at positions 5, 18, 19, 20

Provide each entry's shrunken log2 fold change from the list below.
1. RRIRIRPPRLPRPRPRPQYDPRP
2. RRIRQRPPRLPRPRPRPELCPRP
3. RRIRSRPPRLPRPRPRPRCAPRP
4. RRIRRRPPRLPRPRPRPNVDPRP
5. RRIRDRPPRLPRPRPRPWQDPRP

Resp:
1: -0.043; 2: 0.177; 3: 0.509; 4: -0.125; 5: -0.0397

Provide each entry's shrunken log2 fold change from the list below.
1. RRIRQRPPRLPRPRPRPSRHPRP
2. RRIRARPPRLPRPRPRPIDQPRP

Resp:
-0.0666
0.444

###

- System: Escherichia coli TOP10;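 note: peptides expressed intracellularly from a pBAD plasmid library in pooled LB shake-flask culture, induced with 0.3% L-arabinose, DNA abundance read by NGS, three biological replicates, DESeq2 with apeglm shrinkage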
- procedure-details: shrunken log2 fold change of peptide-encoding DNA abundance (4.5 h post-induction vs induction); higher = less antimicrobial activity (less host growth inhibition)
- measurement-conditions: time post-induction: 4.5 h; library: site-saturation at positions 5, 18, 19, 20
metric: shrunken log2 fold change
Numbers only.

>>> recorded_value("RRIRDRPPRLPRPRPRPYMLPRP")
-0.153

Provide each entry's shrunken log2 fold change from the list below.
1. RRIRHRPPRLPRPRPRPWMDPRP
2. RRIRERPPRLPRPRPRPEWQPRP
3. RRIRTRPPRLPRPRPRPHFIPRP
4. RRIRVRPPRLPRPRPRPIKCPRP
5. RRIRLRPPRLPRPRPRPDATPRP
6. RRIRRRPPRLPRPRPRPPGSPRP

Resp:
0.113
-0.0536
-0.321
-0.633
0.398
0.413

Provide each entry's shrunken log2 fold change from the list below.
1. RRIRERPPRLPRPRPRPVLDPRP
2. RRIRNRPPRLPRPRPRPKSKPRP

Resp:
1: -0.12; 2: 0.0844
